Where do these numbers come from? They come from PubChem BioAssay (EPA / NIEHS).

Read-out: Interleukin-8 (IL8), CXCL8 (gene 3576)
Assay: BSK_3C_IL8: BioMAP Diversity Plus: 3C Assay for Interleukin-8 (IL8) Biomarker Activity (AID 2283020)
Conditions: primary human endothelial cells (HUVEC); actives raise or lower the signal
Active and inactive are the calls of the source. How the source made its calls: active means hit-call score of the fitted dose curve at least 0.9, where 1 is the maximum; inactive means score below 0.9.
Outcomes: TRUE for active, FALSE for inactive

molecule="CCCCC(CC)COC(=O)/C=C\\C(=O)OCC(CC)CCCC (configuration not stated)" category_label=FALSE
molecule=O=P(c1ccccc1)(c1ccccc1)c1ccccc1 category_label=FALSE
molecule="CN(CCOc1ccc(CC2SC(=O)NC2=O)cc1)c1ccccn1 (configuration not stated)" category_label=FALSE
molecule=Cc1ccc(O)c(C(C)(C)C)c1 category_label=TRUE
molecule=CCn1c2ccccc2c2cc(N)ccc21 category_label=FALSE
molecule=CNC[C@H](O)c1cccc(O)c1 category_label=FALSE
molecule=Cc1ccc(Nc2ccc(O)c3c2C(=O)c2ccccc2C3=O)cc1 category_label=FALSE
